- Test system: C57BL/6J mice
- ASSAY NOTES: Head twitch response (HTR) assay
- Format: in vivo, mouse
- PARTICULARS: intraperitoneal injection, head-twitches over 20 mins (FIG. 8, FIG. 9)
TEST READOUT: head-twitch response (hallucinogenic potential)

INSERT INTO assay_data (compound, endpoint_value) VALUES
  ('COc1ccc2c(ccn2C[C@@H](C)N(C)C)c1 [Example 59]', 'did not produce any HTR'),
  ('C[C@H](Cn1ccc2cc(F)ccc21)N(C)C [Example 60]', 'did not produce any HTR');
